What inhibition at 1 µM was measured for each of the following?
- system under test: P110γ (Homo sapiens, UniProt P48736)
- Sequence (P48736 whole entry, canonical isoform): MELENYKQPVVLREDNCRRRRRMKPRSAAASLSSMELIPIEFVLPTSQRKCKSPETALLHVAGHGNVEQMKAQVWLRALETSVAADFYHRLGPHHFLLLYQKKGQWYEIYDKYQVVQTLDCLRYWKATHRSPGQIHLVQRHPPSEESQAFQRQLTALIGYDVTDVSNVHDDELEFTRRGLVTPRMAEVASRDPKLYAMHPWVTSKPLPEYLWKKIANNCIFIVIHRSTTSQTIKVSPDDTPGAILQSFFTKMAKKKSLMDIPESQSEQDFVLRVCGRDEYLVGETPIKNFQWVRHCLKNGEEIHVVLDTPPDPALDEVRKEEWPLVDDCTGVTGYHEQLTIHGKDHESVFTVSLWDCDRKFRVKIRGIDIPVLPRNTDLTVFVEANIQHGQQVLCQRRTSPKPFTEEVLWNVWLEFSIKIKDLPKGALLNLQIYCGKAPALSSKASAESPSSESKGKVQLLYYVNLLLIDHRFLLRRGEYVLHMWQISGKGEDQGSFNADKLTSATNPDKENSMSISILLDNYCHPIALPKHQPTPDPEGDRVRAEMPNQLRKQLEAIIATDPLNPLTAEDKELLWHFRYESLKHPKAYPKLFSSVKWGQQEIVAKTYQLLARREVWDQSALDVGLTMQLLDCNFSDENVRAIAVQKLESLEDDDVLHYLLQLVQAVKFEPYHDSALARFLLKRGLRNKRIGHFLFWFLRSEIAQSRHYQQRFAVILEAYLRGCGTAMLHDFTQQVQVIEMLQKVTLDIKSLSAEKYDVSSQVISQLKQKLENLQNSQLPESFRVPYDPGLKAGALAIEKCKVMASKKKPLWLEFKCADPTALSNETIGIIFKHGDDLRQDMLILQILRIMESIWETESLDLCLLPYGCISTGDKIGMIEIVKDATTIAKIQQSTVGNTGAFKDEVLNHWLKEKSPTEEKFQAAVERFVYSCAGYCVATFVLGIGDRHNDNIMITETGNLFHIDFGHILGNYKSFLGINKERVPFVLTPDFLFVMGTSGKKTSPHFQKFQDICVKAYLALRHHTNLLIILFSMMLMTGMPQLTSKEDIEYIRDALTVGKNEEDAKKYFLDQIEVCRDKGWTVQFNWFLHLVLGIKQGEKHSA
- assay name: Fluorescent (HTRF) determination of PI3K enzyme activity, γ isoform
- Format: biochemical

Which measured inhibition at 1 µM value corresponds to Nc1ncnc2c1c(-c1cccc(O)c1)nn2Cc1oc2ccccc2c(=O)c1-c1ccccc1 ? < 25%

Next up: Cc1c[nH]c2cc(-c3nn(C(C)c4oc5ccccc5c(=O)c4-c4cccc(F)c4)c4ncnc(N)c34)ccc12 (centres unmarked) 50 to 100%

Can you handle Nc1ncnc2c1c(-c1cccc(O)c1)nn2Cc1oc2ccccc2c(=O)c1-c1cccc(F)c1 next? 50 to 100%

Lookup CC(c1oc2ccccc2c(=O)c1-c1cccc(F)c1)n1nc(-c2cccc(N(C)C)c2)c2c(N)ncnc21 (centres unmarked) < 25%

And the next one, CCc1n[nH]c2cc(-c3nn(C(C)c4oc5ccccc5c(=O)c4-c4cccc(F)c4)c4ncnc(N)c34)ccc12 (centres unmarked) ? 50 to 100%

Moving on to COc1cccc(-c2nn(C(C)c3oc4ccccc4c(=O)c3-c3cccc(F)c3)c3ncnc(N)c23)c1 (centres unmarked) < 25%

Entry to check: C[C@H](Nc1ncnc2[nH]cnc12)c1oc2ccccc2c(=O)c1-c1cccc(F)c1 25 to 50%

Similarly, CC(c1oc2ccccc2c(=O)c1-c1cccc(F)c1)n1nc(-c2ccc(Oc3ccccc3)cc2)c2c(N)ncnc21 (centres unmarked) ? 25 to 50%
